# Experimental System: Protein farnesyltransferase (Homo sapiens, UniProt P49354+P49356)
# Assay Details: Inhibition of farnesyltransferase activity in COS7 cells transfected with Ras gene in soft agar proliferation
# Type: functional, cell-based, Chlorocebus aethiops, COS-7
Readout Type: pIC50
One number for each entry, as −log10 of the molar value.

Request: Please give the measured pIC50 for this compound: `CS(=O)(=O)N1CCC([C@@H]2c3ccc(Cl)cc3C(N3CCNCC3)=Cc3cccnc32)CC1`
Result: 7.14

Data origin: ChEMBL document CHEMBL1138145
